Target: mushroom tyrosinase (Agaricus bisporus)
Assay: Mushroom tyrosinase inhibition assay (L-DOPA, dopachrome at 492 nm)
Type: biochemical
Design: purchased Sigma Chemical Co. USA
Conditions: compound after 3 min N2 APPJ plasma treatment; mean ± SD; read-out: Tyrosinase inhibitory activity IC50 (converted)
Sequence (C7FF04 1-392): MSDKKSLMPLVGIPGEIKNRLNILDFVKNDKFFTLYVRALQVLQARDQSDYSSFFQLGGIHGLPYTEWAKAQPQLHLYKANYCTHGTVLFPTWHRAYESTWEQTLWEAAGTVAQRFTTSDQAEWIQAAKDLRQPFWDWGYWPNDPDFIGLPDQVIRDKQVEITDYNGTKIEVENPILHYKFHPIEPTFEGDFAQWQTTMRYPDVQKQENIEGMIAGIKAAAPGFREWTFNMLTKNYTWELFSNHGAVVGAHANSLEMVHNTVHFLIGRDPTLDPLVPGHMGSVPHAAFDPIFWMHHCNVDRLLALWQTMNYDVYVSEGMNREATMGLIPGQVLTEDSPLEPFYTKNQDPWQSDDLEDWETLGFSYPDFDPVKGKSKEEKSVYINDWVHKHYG
METRIC NAME: IC50 (µM)
Numeric answer only, unit µM assumed.

I'm curious: which IC50 was measured for C=CCc1ccc(OC(=O)COC(=O)c2ccc(O)cc2O)c(OC)c1 [4c] tested on mushroom tyrosinase (Agaricus bisporus)?
53

Subsequent entry: C=CCc1ccc(OC(=O)COC(=O)c2ccc(O)cc2)c(OC)c1 [4b]
70.1

Can you handle C=CCc1ccc(OC(=O)COC(=O)/C=C/c2ccc(Cl)cc2)c(OC)c1 [6b] next?
85.3

Repeat with C=CCc1ccc(OC(=O)COC(=O)c2cc(O)cc(O)c2)c(OC)c1 [4e]
215

Please give the result for C=CCc1ccc(OC(=O)COC(=O)c2cccc(O)c2)c(OC)c1 [4a] too.
70.1

For C=CCc1ccc(OC(=O)COC(=O)c2ccc(O)c(O)c2)c(OC)c1 [4d] then?
131

Another compound to check: C=CCc1ccc(OC(=O)COC(=O)/C=C/c2ccc(O)cc2)c(OC)c1 [6a]
13.6

====

Target: mushroom tyrosinase (Agaricus bisporus)
Assay: Circular dichroism analysis of the secondary structure of mushroom tyrosinase
Conditions: tyrosinase + as-synthesized compound (0 min plasma), 0.1 mM; enzyme alone 7
Sequence (C7FF04 2-392): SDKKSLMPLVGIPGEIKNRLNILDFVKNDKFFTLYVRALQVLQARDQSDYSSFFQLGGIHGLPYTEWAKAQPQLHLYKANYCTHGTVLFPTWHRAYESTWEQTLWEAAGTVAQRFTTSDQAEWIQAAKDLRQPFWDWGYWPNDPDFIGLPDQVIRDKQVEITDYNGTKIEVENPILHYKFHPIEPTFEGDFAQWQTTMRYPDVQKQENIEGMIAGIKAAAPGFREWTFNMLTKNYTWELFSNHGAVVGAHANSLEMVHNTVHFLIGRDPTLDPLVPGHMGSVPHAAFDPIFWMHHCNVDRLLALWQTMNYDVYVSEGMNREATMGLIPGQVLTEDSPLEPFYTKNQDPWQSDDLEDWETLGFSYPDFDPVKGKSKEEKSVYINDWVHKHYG
Field: Turn % of tyrosinase. Provide a value for each of the compounds that follow.
Report only the number, with the unit % understood.

What value of Turn % of tyrosinase has been recorded for this entry: C=CCc1ccc(OC(=O)COC(=O)/C=C/c2ccc(O)cc2)c(OC)c1
11.0

Try this compound too: C=CCc1ccc(OC(=O)COC(=O)c2ccc(O)c(O)c2)c(OC)c1
7

Another compound to look at: C=CCc1ccc(OC(=O)COC(=O)c2ccc(O)cc2)c(OC)c1
10

Next compound: C=CCc1ccc(OC(=O)COC(=O)c2cc(O)cc(O)c2)c(OC)c1
6

Next record, please: C=CCc1ccc(OC(=O)COC(=O)c2ccc(O)cc2O)c(OC)c1
4

Same lookup for C=CCc1ccc(OC(=O)COC(=O)/C=C/c2ccc(Cl)cc2)c(OC)c1 , please.
3

Same again, this time with C=CCc1ccc(OC(=O)COC(=O)c2cccc(O)c2)c(OC)c1
5

====

Biological target: mushroom tyrosinase (Agaricus bisporus)
Assay: Circular dichroism analysis of the secondary structure of mushroom tyrosinase
Details: tyrosinase + as-synthesized compound (0 min plasma), 0.1 mM; enzyme alone 44
Consider the following molecules; for each one, report its Random coil % of tyrosinase.
Your reply should be a number followed by the unit it is expressed in.

Given the molecule C=CCc1ccc(OC(=O)COC(=O)c2cc(O)cc(O)c2)c(OC)c1 , what is its reported Random coil % of tyrosinase?
46%

Queued: C=CCc1ccc(OC(=O)COC(=O)c2ccc(O)cc2)c(OC)c1
45.0%

Record: C=CCc1ccc(OC(=O)COC(=O)c2cccc(O)c2)c(OC)c1
45%

Now consider C=CCc1ccc(OC(=O)COC(=O)/C=C/c2ccc(O)cc2)c(OC)c1 .
44%

Moving on to C=CCc1ccc(OC(=O)COC(=O)c2ccc(O)cc2O)c(OC)c1
45%

Param item: C=CCc1ccc(OC(=O)COC(=O)/C=C/c2ccc(Cl)cc2)c(OC)c1
45%

# repeat for C=CCc1ccc(OC(=O)COC(=O)c2ccc(O)c(O)c2)c(OC)c1
45%
